Kindly supply the reported Met Kinase % Inhibition values for the records listed here.
System: MET
Assay: MET biochemical kinase assay
Design: species or system human; concentration or dose not given beside the values
Give the number; % is assumed, so skip it.

Incoming: Reported Met Kinase % Inhibition for CNS(=O)(=O)c1ccc2c(c1)C(=Cc1ccc([N+](=O)[O-])c(O)c1)C(=O)N2 : what is it?
Outgoing: 70.5

Incoming: # Met Kinase % Inhibition lookup, item COc1ccc(Br)c(C=C2C(=O)Nc3c(Br)cc(Br)cc32)c1O
Outgoing: 68.0

Incoming: # get_value(readout='Met Kinase % Inhibition', item= CC(C)(C)c1cc(C=C2C(=O)Nc3ccc(I)cc32)cc(Br)c1O )
Outgoing: 30.4

====

System: MET
Test: MET biochemical kinase assay
Design: species or system human; concentration or dose not given beside the values
PROPERTY LABEL: Met Kinase % Inhibition (%)
Numeric only. Scale: %

Incoming: Which Met Kinase % Inhibition is reported for this compound? CC(C)c1cc(C=C2C(=O)Nc3ccc(I)cc32)cc(C(C)C)c1Oc1ccccc1
Outgoing: 79.5

Incoming: Fill in: Met Kinase % Inhibition of Cc1ccc(C=C2C(=O)Nc3ccc(S(=O)(=O)Nc4ccc(C(F)(F)F)cc4)cc32)o1 is ___
Outgoing: 59.0

Incoming: Recorded Met Kinase % Inhibition of CCn1c2ccccc2c2cc(C=C3C(=O)Nc4ccc(S(=O)(=O)N5CCOCC5)cc43)ccc21 , please.
Outgoing: 47.5

Incoming: Report Met Kinase % Inhibition for CNS(=O)(=O)c1ccc2c(c1)C(=Cc1cccc(C#N)c1)C(=O)N2 please.
Outgoing: 8.5

Incoming: Fill blank: measured Met Kinase % Inhibition of the compound Cc1c(Br)ccc2c1C(=Cc1cc(Br)ccc1O)C(=O)N2 is ____.
Outgoing: 16.3

Incoming: Data request, read-out Met Kinase % Inhibition, for O=C1Nc2ccc(S(=O)(=O)Nc3ccc(C(F)(F)F)cc3)cc2C1=Cc1ccc(N2CCCC2)cc1
Outgoing: 7.5

====

Molecular target: PDGF-R (Homo sapiens, UniProt P09619)
Sequence (P09619 33-1106, species assumed): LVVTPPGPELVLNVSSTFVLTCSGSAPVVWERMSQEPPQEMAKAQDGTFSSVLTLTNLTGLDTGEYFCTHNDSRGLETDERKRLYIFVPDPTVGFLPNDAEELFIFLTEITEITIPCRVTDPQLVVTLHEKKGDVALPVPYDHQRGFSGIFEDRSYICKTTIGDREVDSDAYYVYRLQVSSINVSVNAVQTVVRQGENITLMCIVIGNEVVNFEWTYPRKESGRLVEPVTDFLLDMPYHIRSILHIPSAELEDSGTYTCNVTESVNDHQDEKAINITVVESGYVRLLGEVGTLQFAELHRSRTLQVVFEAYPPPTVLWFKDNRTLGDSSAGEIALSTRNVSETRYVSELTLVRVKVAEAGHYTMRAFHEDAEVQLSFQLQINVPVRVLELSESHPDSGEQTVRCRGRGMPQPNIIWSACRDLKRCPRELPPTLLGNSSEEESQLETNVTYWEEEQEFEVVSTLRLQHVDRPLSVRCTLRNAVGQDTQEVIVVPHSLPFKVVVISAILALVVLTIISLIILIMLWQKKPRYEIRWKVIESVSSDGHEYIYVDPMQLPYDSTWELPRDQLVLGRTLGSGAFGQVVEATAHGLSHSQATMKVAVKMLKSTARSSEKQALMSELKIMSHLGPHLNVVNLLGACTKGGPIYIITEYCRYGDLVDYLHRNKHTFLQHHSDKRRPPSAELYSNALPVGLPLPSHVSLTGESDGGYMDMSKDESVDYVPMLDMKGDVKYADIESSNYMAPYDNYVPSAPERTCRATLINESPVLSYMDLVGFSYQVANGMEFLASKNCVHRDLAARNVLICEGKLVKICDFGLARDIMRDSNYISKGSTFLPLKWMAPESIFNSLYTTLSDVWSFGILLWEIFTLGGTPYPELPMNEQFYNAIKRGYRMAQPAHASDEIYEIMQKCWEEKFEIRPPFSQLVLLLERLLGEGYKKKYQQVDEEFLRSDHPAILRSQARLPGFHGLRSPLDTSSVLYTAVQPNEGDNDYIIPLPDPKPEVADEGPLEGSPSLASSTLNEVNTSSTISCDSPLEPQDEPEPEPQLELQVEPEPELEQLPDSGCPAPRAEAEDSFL
Experiment: PDGF-R ELISA
Format: cell-based
Exercise: for every item that follows, state its recorded PDGF Kinase %Inhibition.
Provide the reading as a plain figure in %.

Incoming: Name the reported PDGF Kinase %Inhibition value associated with the compound CNS(=O)(=O)c1ccc2c(c1)C(=Cc1coc3cc(C)c(C)cc3c1=O)C(=O)N2
Outgoing: 28.4

Incoming: Requested field: PDGF Kinase %Inhibition. Item: CCN(CC)c1ccc(C=C2C(=O)Nc3ccc(Br)c(C)c32)c(O)c1
Outgoing: 3.8

Incoming: Quick one: PDGF Kinase %Inhibition of CCN(CC)c1ccc(C=C2C(=O)Nc3ccc(S(=O)(=O)Nc4ccc(C(F)(F)F)cc4)cc32)c(O)c1 ?
Outgoing: 17.9

Incoming: Please look up its PDGF Kinase %Inhibition: O=C1Nc2ccc(S(=O)(=O)N3CCOCC3)cc2C1=Cc1cc(Cl)cc(Br)c1O
Outgoing: -10.3

Incoming: Given Cc1cc2occ(C=C3C(=O)Nc4ccc(S(=O)(=O)N5CCOCC5)cc43)c(=O)c2cc1C , state its recorded PDGF Kinase %Inhibition.
Outgoing: 11.8

Incoming: Requested field: PDGF Kinase %Inhibition. Item: CNS(=O)(=O)c1ccc2c(c1)C(=Cc1[nH]c(Cl)c(CC(=O)OC)c1C(=O)OC)C(=O)N2
Outgoing: 35.6

Incoming: Endpoint output: PDGF Kinase %Inhibition of C=C(C)C1CC=C(C=C2C(=O)Nc3c(Br)cc(Br)cc32)CC1 (centres unmarked) . Value?
Outgoing: 5.1

Incoming: Find the recorded PDGF Kinase %Inhibition belonging to COc1ccc(C=C2C(=O)Nc3ccc(S(=O)(=O)Nc4ccc(C(F)(F)F)cc4)cc32)c(OC)c1OC and report it.
Outgoing: 16.4

Incoming: Suppose we examine the compound O=C1Nc2ccc(I)cc2C1=Cc1cc(Br)cc(Br)c1O ; what PDGF Kinase %Inhibition value has been reported?
Outgoing: 18.8

Incoming: Consider the compound shown here: COc1c(C(C)C)cc(C=C2C(=O)Nc3c(Br)cc(Br)cc32)cc1C(C)C What is its recorded PDGF Kinase %Inhibition?
Outgoing: -3.8

Incoming: I would be grateful if you could share the reported PDGF Kinase %Inhibition for COc1c(I)cc(C=C2C(=O)Nc3c(Br)cc(Br)cc32)cc1C(C)(C)C .
Outgoing: 40.1

Incoming: # query: PDGF Kinase %Inhibition of entry Cc1c(Br)ccc2c1C(=Cc1cccnc1)C(=O)N2
Outgoing: -13.6

Incoming: # input compound: CCc1ccc(C=C2C(=O)Nc3ccc(S(=O)(=O)Nc4ccc(C(F)(F)F)cc4)cc32)s1 ; wanted: its PDGF Kinase %Inhibition
Outgoing: 37.9

Incoming: Which PDGF Kinase %Inhibition is reported for this compound? O=C1Nc2c(Br)cc(Br)cc2C1=Cc1ccc([N+](=O)[O-])s1
Outgoing: -0.9

Incoming: PDGF Kinase %Inhibition lookup needed for COc1ccc(C=C2C(=O)Nc3ccc(S(=O)(=O)Nc4ccc(C(F)(F)F)cc4)cc32)cc1C(C)(C)C , thanks.
Outgoing: 41.1

Incoming: Name the reported PDGF Kinase %Inhibition value associated with the compound O=C1Nc2c(Br)cc(Br)cc2C1=Cc1ccc(N2CCCC2)cc1
Outgoing: -12.8

Incoming: Find the recorded PDGF Kinase %Inhibition belonging to COc1c(I)cc(C=C2C(=O)Nc3ccc(I)cc32)cc1C(C)(C)C and report it.
Outgoing: 70.9

Incoming: Please give the measured PDGF Kinase %Inhibition for this compound: CC(C)(C)c1cc(C=C2C(=O)Nc3c(Br)cc(Br)cc32)cc(Cl)c1OCc1ccccc1
Outgoing: 7.3

Incoming: I'd like to know its PDGF Kinase %Inhibition. The compound in question is O=C1Nc2c(Br)cc(Br)cc2C1=Cc1cc(O)c2c(c1O)CCCC2
Outgoing: -36.8

Incoming: State the recorded PDGF Kinase %Inhibition for this entry: CNS(=O)(=O)c1ccc2c(c1)C(=Cc1cccc(Oc3ccccc3)c1)C(=O)N2
Outgoing: 2.7

Incoming: Using the record for CN(C)c1ccc(C=C2C(=O)Nc3c(Br)cc(Br)cc32)c2ccccc12 , report its PDGF Kinase %Inhibition.
Outgoing: 6.3

Incoming: # lookup: PDGF Kinase %Inhibition of CNS(=O)(=O)c1ccc2c(c1)C(=Cc1ccc(OC)cc1)C(=O)N2
Outgoing: 30.9

Incoming: // query PDGF Kinase %Inhibition value for entry Cc1cc(C=C2C(=O)Nc3ccc(CCCl)cc32)cc(C)c1OCc1ccccc1
Outgoing: -6.8

Incoming: Please look up its PDGF Kinase %Inhibition: COc1cccc(OC)c1C=C1C(=O)Nc2ccc(S(=O)(=O)Nc3ccc(C(F)(F)F)cc3)cc21
Outgoing: 12.0

Incoming: I'd like to know its PDGF Kinase %Inhibition. The compound in question is CC(C)(C)c1cc(C=C2C(=O)Nc3c(Br)cc(Br)cc32)cc([N+](=O)[O-])c1O
Outgoing: 28.9

Incoming: Record request: PDGF Kinase %Inhibition value, item CNS(=O)(=O)c1ccc2c(c1)C(=Cc1sccc1C)C(=O)N2
Outgoing: 2.3

====

Tested on: MET
Test: MET biochemical kinase assay
Design: species or system human; concentration or dose not given beside the values
Label scheme, based on Met Kinase % Inhibition: low: < 30%; mid: ≥ 30% and < 70%; high: ≥ 70%

Incoming: Exercise: read the entry O=C1Nc2ccc(S(=O)(=O)N3CCOCC3)cc2C1=Cc1c[nH]c2ccccc12 and state which class it falls under.
Outgoing: mid

Incoming: Which class holds CNS(=O)(=O)c1ccc2c(c1)C(=Cc1cc(C)c(C)o1)C(=O)N2 ?
Outgoing: low

Incoming: For this compound, which bin applies? O=C1Nc2ccccc2C1=C1C(=O)Nc2ccc(S(=O)(=O)N3CCOCC3)cc21
Outgoing: mid

Incoming: # bin lookup: classify COc1cc(C=C2C(=O)Nc3ccc(I)cc32)cc(OC)c1 by its Met Kinase % Inhibition
Outgoing: mid

Incoming: Which class holds O=C1Nc2ccc(S(=O)(=O)Nc3ccc(C(F)(F)F)cc3)cc2C1=Cc1ccc(O)c(O)c1O ?
Outgoing: high

Incoming: Which class does O=C1Nc2ccc(CCCl)cc2C1=Cc1cc(Br)ccc1O fall in?
Outgoing: mid

Incoming: Which class holds Cc1cc(C)c(C=C2C(=O)Nc3ccc(S(=O)(=O)Nc4ccc(C(F)(F)F)cc4)cc32)[nH]1 ?
Outgoing: mid

Incoming: The entry to classify is CCOC(=O)c1c(C)[nH]c(C=C2C(=O)Nc3ccc(S(=O)(=O)NC)cc32)c1C ; which class holds it?
Outgoing: mid

Incoming: Field: class (Met Kinase % Inhibition) — entry: O=C1Nc2ccc(S(=O)(=O)Nc3ccc(C(F)(F)F)cc3)cc2C1=Cc1ccc(F)cc1C(F)(F)F
Outgoing: low

Incoming: Pick a category. Item: CSc1ccc(C=C2C(=O)Nc3ccc(CCCl)cc32)cc1
Outgoing: low

Incoming: Class label required: CC(=O)Oc1ccc(C=C2C(=O)Nc3ccc(I)cc32)cc1OC(C)=O
Outgoing: high

Incoming: Which bin should I file O=C1Nc2ccc(CCCl)cc2C1=Cc1ccc(Br)o1 under?
Outgoing: high

Incoming: Record CNS(=O)(=O)c1ccc2c(c1)C(=CC1CC(OC)OC1OC)C(=O)N2 (centres unmarked) — which class?
Outgoing: low
